- Test system: PPARg:RXRa DBDmut IVT, anti-RXR (DBD mutation: RXRa K156A/R161A, NR concentration 270 nM, RXRa partner concentration 90 nM)
- method: PBM binding z-score (relative to random genomic background probes); higher = stronger binding; sequences stand for … in GC…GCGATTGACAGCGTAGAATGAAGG
Short version: PBM binding z-score at least 1 is T, less is F.

- entry_sequence: "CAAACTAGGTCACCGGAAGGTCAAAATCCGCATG"
  label_value: "T"

# input for lookup
PBM binding z-score >= 1 for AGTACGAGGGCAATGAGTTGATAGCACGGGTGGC ? T

* * *

Please go through the items and note down their PBM binding z-score.
- Tested on: RXRa homodimer (NR concentration 180 nM)
- method: PBM binding z-score (relative to random genomic background probes); higher = stronger binding; sequences stand for … in GC…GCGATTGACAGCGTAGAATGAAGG
Give bare numbers.

Some solved cases for reference:
- entry_sequence: "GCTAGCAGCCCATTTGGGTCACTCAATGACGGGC"
  system_tested: "RXRa homodimer (NR concentration 180 nM)"
  PBM binding z-score: 0.587
- entry_sequence: "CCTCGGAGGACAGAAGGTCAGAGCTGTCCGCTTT"
  system_tested: "RXRa homodimer (NR concentration 180 nM)"
  PBM binding z-score: 1.89
- entry_sequence: "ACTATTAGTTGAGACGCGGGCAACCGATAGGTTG"
  system_tested: "RXRa homodimer (NR concentration 180 nM)"
  PBM binding z-score: -0.256
- entry_sequence: "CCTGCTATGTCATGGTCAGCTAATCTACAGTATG"
  system_tested: "RXRa homodimer (NR concentration 180 nM)"
  PBM binding z-score: 0.209
- entry_sequence: "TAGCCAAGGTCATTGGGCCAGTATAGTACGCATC"
  system_tested: "RXRa homodimer (NR concentration 180 nM)"
  PBM binding z-score: 5.46

Below are 6 sequences. Give each one its PBM binding z-score.
1. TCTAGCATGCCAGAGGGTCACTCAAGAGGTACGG
2. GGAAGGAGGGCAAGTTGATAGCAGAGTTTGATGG
3. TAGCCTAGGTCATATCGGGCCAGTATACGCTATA
4. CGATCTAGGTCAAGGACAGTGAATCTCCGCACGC
5. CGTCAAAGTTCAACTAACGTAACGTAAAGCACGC
6. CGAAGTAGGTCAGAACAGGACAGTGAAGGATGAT

1: 2.7; 2: 0.655; 3: 2.49; 4: 2.2; 5: 4.65; 6: 1.37

Could you tell me which PBM binding z-score is on file for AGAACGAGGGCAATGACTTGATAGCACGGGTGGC ? 1.08

* * *

- Test system: PPARg:RXRa DBDmut IVT, anti-RXR (DBD mutation: RXRa K156A/R161A, NR concentration 270 nM, RXRa partner concentration 90 nM)
- method: PBM binding z-score (relative to random genomic background probes); higher = stronger binding; sequences stand for … in GC…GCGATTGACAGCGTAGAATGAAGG
Short version: PBM binding z-score at least 1 is 1.0, less is 0.0.

Illustrative cases are given below, each with its answer.
- entry_sequence: "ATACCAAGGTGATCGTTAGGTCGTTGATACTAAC"
  label_value: 0.0
- entry_sequence: "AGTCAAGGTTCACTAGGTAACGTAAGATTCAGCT"
  label_value: 1.0
- entry_sequence: "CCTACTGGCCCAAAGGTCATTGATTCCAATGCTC"
  label_value: 0.0

PBM binding z-score >= 1 for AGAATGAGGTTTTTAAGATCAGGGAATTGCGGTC ? 0.0

PBM binding z-score >= 1 for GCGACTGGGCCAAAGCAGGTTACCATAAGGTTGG ? 1.0

PBM binding z-score >= 1 for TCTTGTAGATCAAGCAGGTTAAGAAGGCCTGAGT ? 1.0

PBM binding z-score >= 1 for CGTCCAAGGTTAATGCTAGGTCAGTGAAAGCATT ? 1.0

* * *

- System: PPARg:RXRa (NR concentration 180 nM, RXRa partner concentration 90 nM)
- method: PBM binding z-score (relative to random genomic background probes); higher = stronger binding; sequences stand for … in GC…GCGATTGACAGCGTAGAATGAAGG
Please go through the items and note down their PBM binding z-score.
One number for each entry.

- entry_sequence: "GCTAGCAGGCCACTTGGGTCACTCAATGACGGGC"
  PBM binding z-score: 0.483

Below are 3 sequences. Give each one its PBM binding z-score.
1. CCGGCTGGGGCAAAGGTTACCATACTCAGTACGA
2. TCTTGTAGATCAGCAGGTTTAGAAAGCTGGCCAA
3. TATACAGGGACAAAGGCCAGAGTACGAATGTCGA

8.25
-0.901
2.9

Below are 2 sequences. Give each one its PBM binding z-score.
1. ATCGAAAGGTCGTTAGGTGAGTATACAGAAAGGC
2. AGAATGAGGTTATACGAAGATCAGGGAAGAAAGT

1: 2.59; 2: 1.68

Below are 5 sequences. Give each one its PBM binding z-score.
1. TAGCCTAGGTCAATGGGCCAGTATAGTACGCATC
2. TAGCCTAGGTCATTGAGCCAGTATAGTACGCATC
3. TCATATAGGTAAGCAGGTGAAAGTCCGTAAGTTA
4. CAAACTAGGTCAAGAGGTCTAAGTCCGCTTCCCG
5. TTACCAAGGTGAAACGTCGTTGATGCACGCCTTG

2.95
1.95
2.16
7.75
1.66

* * *

- Tested on: VDR:RXRa (NR concentration 270 nM, RXRa partner concentration 90 nM)
- method: PBM binding z-score (relative to random genomic background probes); higher = stronger binding; sequences stand for … in GC…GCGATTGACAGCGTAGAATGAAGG
Please go through the items and note down their PBM binding z-score.
Numbers only.

- entry_sequence: "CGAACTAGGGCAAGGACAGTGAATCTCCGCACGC"
  PBM binding z-score: -0.473
- entry_sequence: "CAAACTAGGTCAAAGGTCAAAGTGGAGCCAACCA"
  PBM binding z-score: 6.72
- entry_sequence: "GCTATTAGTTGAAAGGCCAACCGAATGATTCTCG"
  PBM binding z-score: -0.0343
- entry_sequence: "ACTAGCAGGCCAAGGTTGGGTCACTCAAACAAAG"
  PBM binding z-score: 0.381
- entry_sequence: "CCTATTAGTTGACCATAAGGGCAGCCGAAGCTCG"
  PBM binding z-score: 0.304
- entry_sequence: "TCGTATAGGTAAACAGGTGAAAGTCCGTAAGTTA"
  PBM binding z-score: 0.883
- entry_sequence: "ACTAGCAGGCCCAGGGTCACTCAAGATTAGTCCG"
  PBM binding z-score: 2.19
- entry_sequence: "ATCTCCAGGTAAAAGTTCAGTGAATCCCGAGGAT"
  PBM binding z-score: 1.43
- entry_sequence: "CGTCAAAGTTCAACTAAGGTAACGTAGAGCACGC"
  PBM binding z-score: 4.59
- entry_sequence: "GATACAGGGTCAGCTAGAGGCGAGAGTATGGAAA"
  PBM binding z-score: 2.6

Below are 2 sequences. Give each one its PBM binding z-score.
1. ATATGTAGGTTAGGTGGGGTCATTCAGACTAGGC
2. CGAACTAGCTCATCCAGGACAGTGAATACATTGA

6.5
-0.134

* * *

- System: RARa homodimer (NR concentration 270 nM)
- method: PBM binding z-score (relative to random genomic background probes); higher = stronger binding; sequences stand for … in GC…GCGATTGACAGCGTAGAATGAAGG
measured_metric: PBM binding z-score

Below are 6 sequences. Give each one its PBM binding z-score.
1. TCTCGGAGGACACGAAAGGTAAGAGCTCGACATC
2. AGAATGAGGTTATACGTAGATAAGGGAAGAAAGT
3. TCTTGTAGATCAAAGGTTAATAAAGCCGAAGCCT
4. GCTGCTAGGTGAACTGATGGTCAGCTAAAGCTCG
5. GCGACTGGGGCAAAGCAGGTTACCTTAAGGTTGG
6. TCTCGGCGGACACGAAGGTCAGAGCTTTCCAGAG

1: -0.792; 2: 0.439; 3: 1.02; 4: -1.4; 5: -0.791; 6: -0.212

Below are 3 sequences. Give each one its PBM binding z-score.
1. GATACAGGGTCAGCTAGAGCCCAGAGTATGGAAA
2. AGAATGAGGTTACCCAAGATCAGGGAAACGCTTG
3. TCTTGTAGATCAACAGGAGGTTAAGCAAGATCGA

1: -0.316; 2: -0.0633; 3: -0.27

Below are 5 sequences. Give each one its PBM binding z-score.
1. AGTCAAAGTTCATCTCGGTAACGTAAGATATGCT
2. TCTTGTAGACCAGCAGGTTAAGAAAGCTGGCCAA
3. TCTGCTAGATCAGTTGGTCAGCTAACGAGCTGCC
4. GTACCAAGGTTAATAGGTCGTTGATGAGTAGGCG
5. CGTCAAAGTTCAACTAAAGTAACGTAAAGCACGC

1: 1.33; 2: -0.568; 3: -1.97; 4: 0.938; 5: 2.17
